Source listed as patent US10280158B2.

Documented half-life across a set of molecules
# measurement protocol: In vivo pharmacokinetic experiment, oral administration
# Design: species or system Sprague Dawley rats
# condition summary: male, Sprague-Dawley, rat, plasma, po, 3 mg/kg, oral administration (3 mg/kg), SD rats; read-out: T½ (converted)

{"molecule": "CC(C)Cc1ccc(-c2nc(-c3ccc(CN4CC(C(=O)O)C4)c(Br)c3)no2)cc1", "half-life, h": 5.37}
{"molecule": "CC(C)Cc1ccc(-c2nc(-c3ccc(CN4CC(C(=O)O)C4)c(F)c3)no2)cc1", "half-life, h": 5.47}
{"molecule": "CC(C)Cc1ccc(-c2nc(-c3ccc(CN4CC(C(=O)O)C4)c(Cl)c3)no2)cc1", "half-life, h": 5.3}
{"molecule": "CC(C)Cc1ccc(-c2nc(-c3ccc(CN4CC(C(=O)O)C4)cc3)no2)cc1 [Compound 1, reference compound]", "half-life, h": 10.6}
{"molecule": "Cc1cc(-c2noc(-c3ccc(CC(C)C)cc3)n2)ccc1CN1CC(C(=O)O)C1", "half-life, h": 12.3}

###

# measurement protocol: In vivo pharmacokinetic experiment, oral administration
# Parameters: species or system Sprague Dawley rats
# condition summary: male, Sprague-Dawley, rat, plasma; oral administration (3 mg/kg), SD rats
# Procedure: In this Example, the pharmacokinetic properties of compounds 1, 2, 3, 4 and 5 were evaluated via. i.v. and p.o. dosing to Sprague Dawley rats. […] The concentration of each compound in blood was measured by LC-MS/MS-001 (Q-trap-3200) with osalmide as internal standard material, as follows. […]
Rule: rule met for Cmax not less than 300 ng/mL, rule not met for anything less.

{"compound": "CC(C)Cc1ccc(-c2nc(-c3ccc(CN4CC(C(=O)O)C4)c(F)c3)no2)cc1", "class assignment": "rule met"}
{"compound": "CC(C)Cc1ccc(-c2nc(-c3ccc(CN4CC(C(=O)O)C4)c(Cl)c3)no2)cc1", "class assignment": "rule met"}
{"compound": "Cc1cc(-c2noc(-c3ccc(CC(C)C)cc3)n2)ccc1CN1CC(C(=O)O)C1", "class assignment": "rule not met"}
{"compound": "CC(C)Cc1ccc(-c2nc(-c3ccc(CN4CC(C(=O)O)C4)cc3)no2)cc1 [Compound 1, reference compound]", "class assignment": "rule met"}
{"compound": "CC(C)Cc1ccc(-c2nc(-c3ccc(CN4CC(C(=O)O)C4)c(Br)c3)no2)cc1", "class assignment": "rule met"}
